Parameter viability at 3.2 nmol: see the listing below.
- measurement notes: Cytotoxicity against human Raji cells assessed as cell viability at 3.2 nmol by trypan blue staining
- Assay type: cell-based
- conditions used: read-out: Activity

INSERT INTO assay_data (compound, recorded_metric, result) VALUES
  ('C=C1CC(CC2(C)OC2COc2ccc3ccc(=O)oc3c2)OC1=O (stereo not given)', 'viability at 3.2 nmol', '> 80%');

Ask | What value of viability at 3.2 nmol has been recorded for this entry: C/C(=C\COc1ccc2ccc(=O)oc2c1)CC1CC(O)(CO)C(=O)O1 (stereo not given)
Reply | > 80%

Ask | Field entry: C=C1CC(CC(C)(O)C2COc3ccc4ccc(=O)oc4c3O2)OC1=O (stereo not given)
Reply | > 80%

Ask | Field entry: `COc1ccc2ccc(=O)oc2c1`
Reply | > 80%

Ask | Field entry: CC1(O)CC(CC(C)(O)C2COc3ccc4ccc(=O)oc4c3O2)OC1=O (stereo not given)
Reply | > 80%

Ask | Field entry: CC1(O)CC(CC2(C)OC2COc2ccc3ccc(=O)oc3c2)OC1=O (stereo not given)
Reply | > 80%

Ask | Field entry: C=C1CC(C/C(C)=C/COc2ccc3ccc(=O)oc3c2O)OC1=O (stereo not given)
Reply | > 80%

Ask | Field entry: CC(O)(CC1CC(O)(CO)C(=O)O1)C1COc2ccc3ccc(=O)oc3c2O1 (stereo not given)
Reply | > 80%

Ask | Field entry: CC1(CC2C=C(CO)C(=O)O2)OC1COc1ccc2ccc(=O)oc2c1 (stereo not given)
Reply | > 80%

Ask | Field entry: CC(O)(CC1C=C(CO)C(=O)O1)C1COc2ccc3ccc(=O)oc3c2O1 (stereo not given)
Reply | > 80%

* * *

- Tested on: Raji
- measurement notes: Inhibition of 12-O-tetradecanoylphorbol-13-acetate-induced EBV-early antigen activation in human Raji cells assessed as EA activation at 32 nmol relative to 12-O-tetradecanoylphorbol-13-acetate
- Format: cell-based
- Design: scale not given: the % may be the effect or the level left
- conditions used: human gammaherpesvirus 4
So basically: is Activity under 20%? Then fulfilled. Not under? Then not fulfilled.

Examples with answers:
INSERT INTO measurements (compound, test_system, classification) VALUES
  ('CC(O)(CC1CC(O)(CO)C(=O)O1)C1COc2ccc3ccc(=O)oc3c2O1 (stereo not given) [CLAUSLACTONE C]', 'Raji', 'fulfilled'),
  ('C=C1CC(CC(C)(O)C2COc3ccc4ccc(=O)oc4c3O2)OC1=O (stereo not given) [CLAUSLACTONE A]', 'Raji', 'not fulfilled'),
  ('COc1ccc2ccc(=O)oc2c1 [HERNIARIN]', 'Raji', 'fulfilled'),
  ('C/C(=C\COc1ccc2ccc(=O)oc2c1)CC1CC(O)(CO)C(=O)O1 (stereo not given) [CLAUSLACTONE I]', 'Raji', 'not fulfilled'),
  ('C=C1CC(C/C(C)=C/COc2ccc3ccc(=O)oc3c2O)OC1=O (stereo not given) [CLAUSLACTONE E]', 'Raji', 'not fulfilled');

Ask | Criterion: Activity strictly below 20%. Is it met by C=C1CC(CC2(C)OC2COc2ccc3ccc(=O)oc3c2)OC1=O (stereo not given) [CLAUSLACTONE F] ?
Reply | not fulfilled

Ask | Field entry: CC1(O)CC(CC2(C)OC2COc2ccc3ccc(=O)oc3c2)OC1=O (stereo not given) [CLAUSLACTONE H]
Reply | not fulfilled

Ask | Field entry: CC1(O)CC(CC(C)(O)C2COc3ccc4ccc(=O)oc4c3O2)OC1=O (stereo not given) [CLAUSLACTONE B]
Reply | fulfilled

Ask | Field entry: CC1(CC2C=C(CO)C(=O)O2)OC1COc1ccc2ccc(=O)oc2c1 (stereo not given) [CLAUSLACTONE J]
Reply | not fulfilled
